ASSAY TARGET: butyrylcholinesterase (BuChE) (Rattus norvegicus)
Sequence (Q9JKC1 whole entry): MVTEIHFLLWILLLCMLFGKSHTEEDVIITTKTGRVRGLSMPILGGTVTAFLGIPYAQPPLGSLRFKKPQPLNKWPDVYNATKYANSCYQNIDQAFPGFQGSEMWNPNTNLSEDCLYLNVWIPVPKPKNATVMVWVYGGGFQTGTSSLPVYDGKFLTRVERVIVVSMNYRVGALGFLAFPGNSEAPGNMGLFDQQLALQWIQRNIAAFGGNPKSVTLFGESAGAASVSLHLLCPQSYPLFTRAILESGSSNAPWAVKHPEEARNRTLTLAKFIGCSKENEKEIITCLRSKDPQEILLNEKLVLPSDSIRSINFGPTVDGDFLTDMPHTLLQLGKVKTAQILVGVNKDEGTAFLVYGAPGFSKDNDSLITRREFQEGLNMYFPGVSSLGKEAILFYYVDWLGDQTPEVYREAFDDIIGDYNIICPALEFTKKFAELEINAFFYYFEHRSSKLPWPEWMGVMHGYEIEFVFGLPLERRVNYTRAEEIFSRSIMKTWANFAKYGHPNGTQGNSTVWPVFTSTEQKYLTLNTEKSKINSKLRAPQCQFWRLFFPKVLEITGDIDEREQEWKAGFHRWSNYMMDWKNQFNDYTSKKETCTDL
ASSAY COMMENT: Inhibition of rat serum BuChE at 10 uM using butyrylthiocholine iodide as substrate incubated for 15 mins by Ellman's method relative to control
Type: cell-free
MEASUREMENT CONTEXT: probe butyrylthiocholine iodide
# reported inhibition at […], 10 µM; entries follow

{"COMPOUND": "COc1cc2c(cc1OC)/C(=C\\c1cccc(O)c1N1CCOCC1)OC2=O", "ASSAY TARGET": "butyrylcholinesterase (BuChE) (Rattus norvegicus)", "inhibition at […], 10 µM": "11.3%"}
{"COMPOUND": "COc1cc2c(cc1OC)/C(=C/c1cccc(O)c1N1CCCC1)OC2=O", "ASSAY TARGET": "butyrylcholinesterase (BuChE) (Rattus norvegicus)", "inhibition at […], 10 µM": "8.8%"}
{"COMPOUND": "CCN(CC)c1cc(/C=C2/OC(=O)c3cc(OC)c(OC)cc32)ccc1O", "ASSAY TARGET": "butyrylcholinesterase (BuChE) (Rattus norvegicus)", "inhibition at […], 10 µM": "25.1%"}

Entry COc1cc2c(cc1OC)/C(=C\c1cccc(O)c1N1CCN(C)CC1)OC2=O ; inhibition at […], 10 µM = 5.9%

Entry CCN(CC)c1c(O)cccc1CC1OC(=O)c2cc(OC)c(OC)cc21 (stereo not given) ; inhibition at […], 10 µM = 12.5%

====

ASSAY COMMENT: Cytotoxicity against rat PC-12 cells assessed as cell viability at 100 uM measured after 2 hrs by MTT assay relative to control
Type: cell-based
MEASUREMENT CONTEXT: read-out: Activity
QUANTITY NAME: viability at 2 h, 100 µM (%)
A number alone suffices; assume %.

Entry COc1cc2c(cc1OC)/C(=C/c1ccc(O)c(N3CCCCC3)c1)OC2=O ; viability at 2 h, 100 µM = 81.2

====

# collection of IC50 values tested on Acetylcholinesterase (Electrophorus electricus, UniProt O42275)
# Sequence (O42275 whole entry): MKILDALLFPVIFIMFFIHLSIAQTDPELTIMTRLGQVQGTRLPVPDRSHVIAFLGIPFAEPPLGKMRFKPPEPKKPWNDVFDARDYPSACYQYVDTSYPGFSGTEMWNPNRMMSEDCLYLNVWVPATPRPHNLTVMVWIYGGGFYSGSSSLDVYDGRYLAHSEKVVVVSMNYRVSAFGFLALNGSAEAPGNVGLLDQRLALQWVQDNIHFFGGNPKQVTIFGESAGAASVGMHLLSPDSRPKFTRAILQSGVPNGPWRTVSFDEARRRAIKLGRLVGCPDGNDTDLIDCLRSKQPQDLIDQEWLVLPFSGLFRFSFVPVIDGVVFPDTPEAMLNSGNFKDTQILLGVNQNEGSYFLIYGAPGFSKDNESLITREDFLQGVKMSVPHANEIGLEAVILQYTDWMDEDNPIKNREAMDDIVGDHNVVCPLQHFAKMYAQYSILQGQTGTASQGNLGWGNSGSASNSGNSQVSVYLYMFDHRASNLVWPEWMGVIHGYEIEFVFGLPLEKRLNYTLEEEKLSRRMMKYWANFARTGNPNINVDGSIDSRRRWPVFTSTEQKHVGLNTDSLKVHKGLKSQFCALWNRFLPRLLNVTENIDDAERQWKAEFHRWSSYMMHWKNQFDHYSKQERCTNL
A number alone suffices; assume nM.

{"COMPOUND": "COc1cc2c(cc1OC)/C(=C\\c1ccc(O)c(N3CCCCC3)c1)OC2=O", "ASSAY TARGET": "Acetylcholinesterase (Electrophorus electricus, UniProt O42275)", "OUTPUT UNIT": "nM", "IC50": 0.0704}
{"COMPOUND": "COc1cc2c(cc1OC)C(Cc1ccc(N3CCCC3)c(O)c1)OC2=O (stereo not given)", "ASSAY TARGET": "Acetylcholinesterase (Electrophorus electricus, UniProt O42275)", "OUTPUT UNIT": "nM", "IC50": 960}
{"COMPOUND": "COc1cc2c(cc1OC)/C(=C\\c1ccc(N3CCCC3)c(O)c1)OC2=O", "ASSAY TARGET": "Acetylcholinesterase (Electrophorus electricus, UniProt O42275)", "OUTPUT UNIT": "nM", "IC50": 660}
{"COMPOUND": "COc1cc2c(cc1OC)C(Cc1ccc(N3CCOCC3)c(O)c1)OC2=O (stereo not given)", "ASSAY TARGET": "Acetylcholinesterase (Electrophorus electricus, UniProt O42275)", "OUTPUT UNIT": "nM", "IC50": 8260}

// below: IC50 requested for another compound
Let me check: CCN(CC)c1ccc(/C=C2\OC(=O)c3cc(OC)c(OC)cc32)cc1O , system Acetylcholinesterase (Electrophorus electricus, UniProt O42275), measured IC50 is 72

====

ASSAY TARGET: Acetylcholinesterase (Electrophorus electricus)
QUANTITY NAME: IC50 (nM)
A number alone suffices; assume nM.

{"MOLECULE": "COc1cc2c(cc1OC)/C(=C\\c1cccc(O)c1N1CCN(C)CC1)OC2=O", "IC50, nM": 12400}
{"MOLECULE": "COc1cc2c(cc1OC)/C(=C/c1ccc(N3CCCCC3)c(O)c1)OC2=O", "IC50, nM": 66}
{"MOLECULE": "COc1cc2c(cc1OC)/C(=C/c1ccc(O)c(N3CCCCC3)c1)OC2=O", "IC50, nM": 0.0918}

Entry COc1cc2c(cc1OC)/C(=C\c1ccc(N3CCN(C)CC3)c(O)c1)OC2=O ; IC50 = 2630

Entry COc1cc2c(cc1OC)/C(=C/c1ccc(N3CCOCC3)c(O)c1)OC2=O ; IC50 = 9680

Entry COc1cc2c(cc1OC)C(Cc1ccc(N3CCCCC3)c(O)c1)OC2=O (stereo not given) ; IC50 = 33

Entry COc1cc2c(cc1OC)/C(=C\c1cccc(O)c1N1CCCC1)OC2=O ; IC50 = 19500

Entry COc1cc2c(cc1OC)/C(=C\c1ccc(N3CCCCC3)c(O)c1)OC2=O ; IC50 = 8.83

Entry CCN(CC)c1ccc(CC2OC(=O)c3cc(OC)c(OC)cc32)cc1O (stereo not given) ; IC50 = 2210

Entry COc1cc2c(cc1OC)/C(=C/c1ccc(N3CCCC3)c(O)c1)OC2=O ; IC50 = 31

====

ASSAY TARGET: butyrylcholinesterase (BuChE) (Rattus norvegicus)
ASSAY COMMENT: Inhibition of rat serum BuChE at 10 uM using butyrylthiocholine iodide as substrate incubated for 15 mins by Ellman's method relative to control
Format: cell-free
MEASUREMENT CONTEXT: probe butyrylthiocholine iodide
Use 9% as the dividing line for inhibition at […], 10 µM, with the line itself on the y side and lower values as n.

Illustrative cases are given below, each with its answer.
{"COMPOUND": "COc1cc2c(cc1OC)/C(=C/c1ccc(O)c(N3CCCCC3)c1)OC2=O", "CLASS LABEL": "y"}
{"COMPOUND": "COc1cc2c(cc1OC)/C(=C/c1cccc(O)c1N1CCCCC1)OC2=O", "CLASS LABEL": "n"}
{"COMPOUND": "COc1cc2c(cc1OC)C(Cc1cccc(O)c1N1CCCC1)OC2=O (stereo not given)", "CLASS LABEL": "n"}

Say whether CCCCC1OC(=O)c2ccccc21 (racemic) [RAC-3-N-BUTYLPHTHALIDE] shows inhibition at […], 10 µM of 9% or more.
n

Say whether CCN(CC)c1ccc(/C=C2\OC(=O)c3cc(OC)c(OC)cc32)cc1O shows inhibition at […], 10 µM of 9% or more.
n

====

# collection of log10(IC50) values tested on Acetylcholinesterase (Homo sapiens, UniProt P22303)
# Sequence (P22303 whole entry): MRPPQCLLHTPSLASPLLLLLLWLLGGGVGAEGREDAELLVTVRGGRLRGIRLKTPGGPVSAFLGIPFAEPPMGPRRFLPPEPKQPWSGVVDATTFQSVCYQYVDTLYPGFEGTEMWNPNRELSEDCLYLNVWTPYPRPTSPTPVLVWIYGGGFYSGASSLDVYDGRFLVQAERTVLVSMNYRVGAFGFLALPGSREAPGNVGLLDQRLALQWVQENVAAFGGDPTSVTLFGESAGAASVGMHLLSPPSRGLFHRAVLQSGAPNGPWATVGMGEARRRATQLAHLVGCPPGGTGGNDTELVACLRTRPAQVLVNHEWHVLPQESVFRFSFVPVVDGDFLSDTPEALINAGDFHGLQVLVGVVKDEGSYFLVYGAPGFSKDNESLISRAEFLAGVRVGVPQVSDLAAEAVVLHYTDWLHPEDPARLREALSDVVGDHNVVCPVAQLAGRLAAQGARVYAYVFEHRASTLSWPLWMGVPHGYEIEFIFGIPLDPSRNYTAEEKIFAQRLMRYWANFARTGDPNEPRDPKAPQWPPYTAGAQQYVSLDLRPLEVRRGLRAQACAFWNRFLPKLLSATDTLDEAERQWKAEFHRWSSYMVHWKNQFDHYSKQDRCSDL
Values below are the log10 of the recorded IC50, with nM as the unit.

Examples from the recorded data:
{"MOLECULE SMILES": "COc1cc2c(cc1OC)/C(=C\\c1ccc(N3CCCCC3)c(O)c1)OC2=O", "RECORDED MEASUREMENT": 1.08}
{"MOLECULE SMILES": "COc1cc2c(cc1OC)/C(=C/c1ccc(N3CCCCC3)c(O)c1)OC2=O", "RECORDED MEASUREMENT": 1.70}
{"MOLECULE SMILES": "CCN(CC)c1cc(/C=C2/OC(=O)c3cc(OC)c(OC)cc32)ccc1O", "RECORDED MEASUREMENT": 0.11}
{"MOLECULE SMILES": "COc1cc2c(cc1OC)/C(=C\\c1ccc(O)c(N3CCCCC3)c1)OC2=O", "RECORDED MEASUREMENT": -0.47}
{"MOLECULE SMILES": "COc1cc2c(cc1OC)/C(=C/c1ccc(O)c(N3CCCCC3)c1)OC2=O", "RECORDED MEASUREMENT": -0.21}

Let me check: CCN(CC)c1cc(/C=C2\OC(=O)c3cc(OC)c(OC)cc32)ccc1O , system Acetylcholinesterase (Homo sapiens, UniProt P22303), measured log10(IC50) is 0.19

====

ASSAY TARGET: MAO-A (Homo sapiens)
Sequence (P21397 whole entry): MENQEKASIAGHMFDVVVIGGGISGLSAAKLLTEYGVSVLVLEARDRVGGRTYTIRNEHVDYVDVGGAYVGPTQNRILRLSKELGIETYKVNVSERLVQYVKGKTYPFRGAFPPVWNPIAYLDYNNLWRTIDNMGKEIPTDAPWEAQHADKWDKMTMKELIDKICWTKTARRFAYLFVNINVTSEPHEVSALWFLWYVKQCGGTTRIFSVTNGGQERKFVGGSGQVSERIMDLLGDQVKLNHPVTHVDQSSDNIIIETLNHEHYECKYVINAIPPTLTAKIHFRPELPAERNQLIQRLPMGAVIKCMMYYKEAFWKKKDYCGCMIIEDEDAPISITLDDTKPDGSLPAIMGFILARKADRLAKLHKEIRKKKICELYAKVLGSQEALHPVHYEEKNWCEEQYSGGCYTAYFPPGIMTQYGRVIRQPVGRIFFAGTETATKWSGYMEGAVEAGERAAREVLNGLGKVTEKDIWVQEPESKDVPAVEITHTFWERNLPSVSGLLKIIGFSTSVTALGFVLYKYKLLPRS
ASSAY COMMENT: Inhibition of recombinant human MAOA at 10 uM using kynuramine as substrate preincubated for 30 mins followed by substrate addition and measured after 30 mins by fluorescence assay relative to control
MEASUREMENT CONTEXT: probe kynuramine, time 60 min
QUANTITY NAME: inhibition at 0.5 h, 10 µM (%)
A number alone suffices; assume %.

Entry COc1cc2c(cc1OC)C(Cc1cccc(O)c1N1CCCC1)OC2=O (stereo not given) ; inhibition at 0.5 h, 10 µM = 10.5

Entry COc1cc2c(cc1OC)C(Cc1cccc(O)c1)OC2=O (stereo not given) ; inhibition at 0.5 h, 10 µM = 7.9

Entry COc1cc2c(cc1OC)/C(=C\c1ccc(N3CCOCC3)c(O)c1)OC2=O ; inhibition at 0.5 h, 10 µM = 18.7

Entry COc1cc2c(cc1OC)/C(=C/c1ccc(N3CCN(C)CC3)c(O)c1)OC2=O ; inhibition at 0.5 h, 10 µM = 16.5

Entry COc1cc2c(cc1OC)/C(=C/c1cccc(O)c1N1CCOCC1)OC2=O ; inhibition at 0.5 h, 10 µM = 6.6

Entry COc1cc2c(cc1OC)/C(=C\c1ccc(N3CCCC3)c(O)c1)OC2=O ; inhibition at 0.5 h, 10 µM = 32

Entry COc1cc2c(cc1OC)C(Cc1ccc(N3CCCCC3)c(O)c1)OC2=O (stereo not given) ; inhibition at 0.5 h, 10 µM = 14.8

Entry COc1cc2c(cc1OC)C(Cc1ccc(N3CCN(C)CC3)c(O)c1)OC2=O (stereo not given) ; inhibition at 0.5 h, 10 µM = 5.6

Entry COc1cc2c(cc1OC)C(Cc1ccc(N3CCOCC3)c(O)c1)OC2=O (stereo not given) ; inhibition at 0.5 h, 10 µM = 8.7

Entry COc1cc2c(cc1OC)/C(=C\c1ccc(N3CCN(C)CC3)c(O)c1)OC2=O ; inhibition at 0.5 h, 10 µM = 5

Entry COc1cc2c(cc1OC)/C(=C/c1ccc(N3CCCCC3)c(O)c1)OC2=O ; inhibition at 0.5 h, 10 µM = 6.1

Entry COc1cc2c(cc1OC)/C(=C/c1ccc(N3CCCC3)c(O)c1)OC2=O ; inhibition at 0.5 h, 10 µM = 5.1
